Below is a list of entries, each paired with its recorded growth inhibition value.
- method-summary: NCI Yeast Anticancer Drug Screen. Data for the rad50 strain (AID 155);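 further: 0% = growth of vehicle-only cultures of the same strain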
- conditions-used: S. cerevisiae rad50 strain growth inhibition, hits give high values; at 50.0 µM unless noted
This is part of a sample that, as a whole, favours compounds with a hit. Of some 79,000 tested, about 15% had one in any assay. Calls of active or inactive are those of the source. No stated cut-off is given here; in the data, active means growth inhibition above about 70%; inactive means the rest.

Exam item: What value of measured growth inhibition is listed for "Cc1nc2c(cnn2C)c(=O)n1C(C)C" ?
Marked response: 3.3% (inactive)

###

growth inhibition reference
- method-summary: NCI Yeast Anticancer Drug Screen. Data for the mec2-1 strain (AID 157)
- conditions-used: S. cerevisiae mec2-1 strain, hits give high values; at 50.0 µM unless noted
This is part of a sample that, as a whole, favours compounds with a hit. Of some 79,000 tested, about 15% had one in any assay.
Provide only the numeric value, understood in %.

Answered examples (7):
CCCNC(=O)Cn1c(-c2ccccc2)cc2ccccc21 = 5.5
CC(=O)NC1C(OCc2ccccc2)OC(CO)C(O)C1OCC(=O)NC(C)C(=O)NC(CCC(=O)NCCCCCNc1c2ccccc2nc2cccc([N+](=O)[O-])c12)C(N)=O (stereo not drawn) = 87.3
Clc1ccc(/C=N\OCc2ccc(Cl)c(Cl)c2)cc1Cl = -13.1
O=C1c2ccccc2C(=O)N1CN1C(=O)c2ccccc2S1(=O)=O = 15.6
COC(=O)CC(NC(=O)OCc1ccccc1)C(=O)NCC(=O)Oc1ccc([N+](=O)[O-])cc1 (stereo not drawn) = 11.8
CS(=O)(=O)c1cccc(C(=O)O)c1 = 7.65
CC(C)CCCC(C)C1CCC2C3CC(C(=O)O)C(C)(CCC(=O)O)C3CCC12C (stereo not drawn) = 36

Exam item: # growth inhibition lookup, item "COC(=O)/C(C#N)=N/O"
Marked response: -39.1

###

# Lookup of reported growth inhibition keyed by entry
- method-summary: NCI Yeast Anticancer Drug Screen. Data for the mlh1 rad18 strain (AID 175)
- conditions-used: S. cerevisiae mlh1 rad18 strain growth inhibition, hits give high values; at 50.0 µM unless noted
This is part of a sample that, as a whole, favours compounds with a hit. Of some 79,000 tested, about 15% had one in any assay. The source made the active and inactive calls. No stated cut-off is given here; in the data, active means growth inhibition above about 70%; inactive means the rest.

Look over these answered cases.
CCOC(=O)c1ccc(N=C2S/C(=C\C(=S)Nc3ccccc3)N(c3ccccc3)C2=Nc2ccc(C(=O)OCC)cc2)cc1 = 12.4% (inactive)
O=C1c2ccccc2C(=O)c2c1ccc1c3ccccc3n(-c3ccccc3)c21 = 15.7% (inactive)
CN(N=O)C(=O)NCCn1cnc2c(=O)[nH]cnc21 = -11.8% (inactive)
CC1CC(C)(O)C2C3(C)CCCC2(COC3=O)C12CCC1(CCOC1=O)O2 (configuration not stated) = 2.9% (inactive)
Nc1ccc(C(=O)N/N=C/c2ccccc2O)cc1 = 19.2% (inactive)
Cc1c2n(c(=O)[nH]c1=O)C1OC(CO)C(O2)C1N=[N+]=[N-] (configuration not stated) = -34.6% (inactive)
Nc1nc(Cl)cc(NCCCCCCCCNc2cc(Cl)nc(N)n2)n1 = -3.55% (inactive)
O=C1C(=O)c2ccccc2C(O)=C1CN1CCOCC1 = 8.85% (inactive)
O=C(C(=C(I)I)c1ccccc1)c1ccccc1 = -75.4% (inactive)
C=C1CC[C@@H](C)[C@](C)(CCc2ccoc2)C/C=C\C=C/1C(=O)O = 61.6% (inactive)

Exam item: # input compound: "O=C(O)C[N-]CC(=O)O.OO.[O]=[V]" ; wanted: its growth inhibition
Marked response: 3.55% (inactive)

Exam item: // query growth inhibition value for entry "COc1cc(C)c(C)c(OC(=O)c2c(C)c(C)c(OC)c(C)c2OC)c1C"
Marked response: 16.1% (inactive)

Exam item: For CC(=O)NC(CCC(C)C)C(=O)O (configuration not stated) , what is its reported growth inhibition?
Marked response: -7.35% (inactive)

Exam item: Fill in: growth inhibition of COC(=O)C1=CN(CCc2ccc(O)cc2)C(=O)C2C1CC(O)C2C (configuration not stated) is ___
Marked response: -10.2% (inactive)

Exam item: Name the recorded growth inhibition for C#CCN(N=O)C(=O)NCCCCC(NC(=O)OCc1ccccc1)C(=O)OCc1ccccc1 (configuration not stated) .
Marked response: -24.9% (inactive)

Exam item: Entry under review: "[O-]c1nn(-c2ccccc2)n[n+]1-c1ccccc1" . Reported growth inhibition?
Marked response: -10% (inactive)

Exam item: So what's the measured growth inhibition for this one? "CC(=O)N(C(=O)CC(=O)NNCc1ccccc1Cl)c1ccc(Cl)cc1"
Marked response: 6.3% (inactive)

###

Measured growth inhibition by item
- method-summary: NCI Yeast Anticancer Drug Screen. Data for the mec2-1 strain (AID 157)
- conditions-used: S. cerevisiae mec2-1 strain, hits give high values; at 50.0 µM unless noted
The panel holds about 79,000 compounds, 15% with a hit somewhere; the sample as a whole holds those more often.
Please reply with the bare figure in % and do not write the unit itself.

CC[N+]1(CC)CCOC(=O)C1 = -2.6

Exam item: What value of growth inhibition has been recorded for this entry: "O=C(/C=C/c1ccccc1)c1ccc(I)cc1"
Marked response: -1.25

Exam item: Quick one: growth inhibition of BrCC(Br)C1OCCCO1 (configuration not stated) ?
Marked response: 18.1

###

- method-summary: NCI Yeast Anticancer Drug Screen. Data for the bub3 strain (AID 167)
- conditions-used: S. cerevisiae bub3 mutant strain, hits give high values; at 50.0 µM unless noted
This is part of a sample that, as a whole, favours compounds with a hit. Of some 79,000 tested, about 15% had one in any assay.
parameter-measured: growth inhibition (%)
Give the value in % but do not write % after it.

N=c1ccccn1C(=O)C1=Cc2cc(Cl)cc(Cl)c2OC1 = 7.65
CCCCC/C([O-])=C1/C(=O)N(c2ccccc2)N=C1C.CCCCC/C([O-])=C1/C(=O)N(c2ccccc2)N=C1C.[Cu+2] = -2.75
CCc1ccc(NC(=O)c2ccccc2)cc1CC = -4.05
CC(C)(C)OC(=O)NCC(=O)NC1C/C(=N\O)c2sccc21 (stereo unspecified) = -5.35
N#Cc1c[nH]c(=O)[nH]c1=O = 1.85
CC1(C)OC(=O)C(=Cc2ccc3c(c2)OCO3)C(=O)O1 = -8

Exam item: May I ask what growth inhibition has been recorded for CCC(C)C(C#N)(CCN(CC)CC)c1ccccc1 (stereo unspecified) ?
Marked response: 32.9

Exam item: Data request, read-out growth inhibition, for CC(=O)OCC(OC(C)=O)C(OC(C)=O)C(OC(C)=O)C(OC(C)=O)C(=O)NC1CCc2ccccc2C1 (stereo unspecified)
Marked response: 0.25

Exam item: Reported growth inhibition for "CC(=O)Oc1cc(OC(C)=O)c2c(OC(C)=O)c3c(OC(C)=O)cc(C)cc3cc2c1" : what is it?
Marked response: 9.3

Exam item: Using the record for "CCc1cc(C(=O)OC/C(C)=N/O)c2ccccc2n1" , report its growth inhibition.
Marked response: 30.4

Exam item: Sample "N#C/C(=C/NC(N)=S)C(N)=O" — what was its growth inhibition?
Marked response: -27.1

###

- method-summary: NCI Yeast Anticancer Drug Screen. Data for the sgs1 mgt1 strain (AID 161);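 further: 0% = growth of cultures given vehicle only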
- conditions-used: S. cerevisiae sgs1 mgt1 strain, hits give high values; at 50.0 µM unless noted
Compounds without any hit were thinned out: in the full panel of roughly 79,000, 15% have a hit.
Each item that follows carries a reported growth inhibition.
Just the number in %, nothing appended.

Examples with their reported growth inhibition follow.
CCOC(=O)Cc1nc2nn(Cc3ccccc3)cc2c(=O)[nH]1 = -7
NC(=O)C1CC2(c3ccccn3)c3ccccc3C1c1ccccc12 (stereo not drawn) = 10.4
O=C(NC(=S)Nc1ccccc1F)c1cccc([N+](=O)[O-])c1 = 79.2
O=C(O)/C(=C/c1cccc(Cl)c1)c1ccc(Cl)cc1 = 0.7

Exam item: Given OCC(O)COc1ccc(F)cc1 (stereo not drawn) , state its recorded growth inhibition.
Marked response: -0.15

Exam item: Entry "Cc1nc2c(cc1C(=O)NN)c(=O)n(C)c(=O)n2C" has what growth inhibition?
Marked response: -8.5

Exam item: growth inhibition for CC1CC(=O)c2c(ccc3c2C(=O)c2cccc(O)c2C3=O)C1 (stereo not drawn) ?
Marked response: 40.2

Exam item: Fill blank: measured growth inhibition of the molecule "CCOC(=O)/C=C/CCC(C)(C)COC(C)=O" is ____.
Marked response: -36.9

###

- method-summary: NCI Yeast Anticancer Drug Screen. Data for the cln2 rad14 strain (AID 165);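 further: 0% = growth equal to vehicle treated cultures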
- conditions-used: S. cerevisiae cln2 rad14 strain; at 50.0 µM unless noted
This is part of a sample that, as a whole, favours compounds with a hit. Of some 79,000 tested, about 15% had one in any assay. Activity calls are given as the source filed them. No stated cut-off is given here; in the data, active means growth inhibition above about 70%; inactive means the rest.
Response enum: y for active, n for inactive

Sample answers from the record:
Nc1cc2c(cc1[N+](=O)[O-])-c1ccc(Cl)cc1C2=O = n
COc1ccc(C2=C(Cl)c3cc(OC)c(OC)cc3C2Cl)cc1 (stereo not drawn) = n
C#CC(=O)CCC = n
NNC(=O)c1c(O)ccc2ccccc12 = n
Cc1ccc(-c2c3ccccc3cc3ccccc23)c(C)c1 = n

Exam item: Each compound tested received a call. Report the one for O=C(OC(C1COCO1)C(O)C1COCO1)c1ccccc1 (stereo not drawn) .
Marked response: n

Exam item: What did this assay record as the result for "O=C1/C(=C/c2cccc(Br)c2)Cc2ccccc21" ?
Marked response: n

Exam item: Hi, sorry to bother you, what did the test record for "N.N.N.N.O=C([O-])O.O=C([O-])[O-].[Co+3]" ?
Marked response: n

Exam item: # outcome recorded in this test, key = "C[C@H]1CC(=O)[C@@]2(O)C#C/C=C\C#C[C@@H]3Nc4c(cc(O)c5c4C(=O)c4ccccc4C5=O)[C@]24O[C@]314"
Marked response: y

Exam item: Returns: the outcome recorded for COc1ccc(C2(OC)Oc3cc(OC)ccc3-c3nc4ccccc4nc32)cc1 (stereo not drawn) in this assay.
Marked response: n

Exam item: Hi, sorry to bother you, what did the test record for "C=CCOCn1cnc2c(N)ncnc21" ?
Marked response: n

Exam item: Could you check what this test reported for "Cc1ccc(S(=O)(=O)OC2CCSCC2)cc1" ?
Marked response: n

Exam item: Please indicate how the test categorized CC(Oc1ccccc1)C(=O)NC(=S)Nc1cccc2ccccc12 (stereo not drawn) .
Marked response: n

Exam item: Hi, do you know how "C(=Nc1cccnc1)c1ccc(C=Nc2cccnc2)cc1" came out in this test?
Marked response: n

Exam item: Please let me know the test result on file for "OC(Cc1ccc2ccccc2n1)(C(F)(F)F)C(F)(F)F" .
Marked response: n

Exam item: For Cc1ncc([N+](=O)[O-])n1CC(O)Cn1cnc([N+](=O)[O-])n1 (stereo not drawn) , what call appears in the results of this test?
Marked response: n

Exam item: What call does the record list for COc1ccc(C2S/C(=C\c3ccc([N+](=O)[O-])cc3)C(=O)N2NC(=O)Cc2ccccc2)cc1 (stereo not drawn) ?
Marked response: n

Exam item: Which outcome was entered for the compound "O=S1(=O)CS/C(=N\C(=S)N(c2ccccc2)c2ccccc2)N1c1ccccc1" in this test?
Marked response: n

Exam item: Give the logged outcome of this assay for the following compound: OCC(O)COc1ccc(Cl)cc1 (stereo not drawn)
Marked response: n

Exam item: Recorded test call requested for "O=C(O)CCNCCC(=O)O"
Marked response: n

Exam item: I'd appreciate the recorded outcome for "O=C(O)c1ccc(Cl)o1" from this test.
Marked response: n

Exam item: In this assay, the call recorded for "Cn1cnc2nc(Cl)nc(N)c21" was what?
Marked response: n

From: PubChem BioAssay (NCI)
